assay: Dissociation constant, pKa of the compound; assay type: physicochemical
assayReadout: pKa

INSERT INTO results (smilesrecord, measurednumber) VALUES
  ('FC1CN(c2cc(N3CCCCCC3)nc(C3CC3)n2)C1', 6.9),
  ('Cc1c(N2CCCCCC2)nc(C2CC2)nc1N1CC(F)C1', 6.6),
  ('Cc1c(N2CCCCCC2)nc(C2CC2)nc1N1CC(C)(C)C1', 7),
  ('COC1CN(c2nc(C3CC3)nc(N3CCCCCC3)c2C)C1', 6.8),
  ('c1c(N2CCCCCC2)nc(C2CC2)nc1N1CCC1', 7.4),
  ('Cc1c(N2CCCCCC2)nc(C2CC2)nc1N1CC(=O)C1', 6.4),
  ('Cc1c(N2CCCCCC2)nc(C2CC2)nc1N1CC(C)C1', 8),
  ('Cc1c(N2CCCCCC2)nc(C2CC2)nc1N1CC(O)C1', 7),
  ('CC1CN(c2cc(N3CCCCCC3)nc(C3CC3)n2)C1', 7.5),
  ('Cc1c(N2CCCCCC2)nc(C2CC2)nc1N1CC(C#N)C1', 6.4),
  ('Cc1c(N2CCCCCC2)nc(C2CC2)nc1N1CCC1', 7.1);
